- measurement protocol: amyloid nucleation score (Sup35N fusion, yeast selection) (log enrichment); library NNK1; higher = more nucleation; inactive = no reads after selection;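 further: zero at mode of non-aggregating sequences after 7 days selection at 30°C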
Returns one of 1 (yes) or 0 (no); 1 (yes) when amyloid nucleation score is >= 0.4.

substance	answer label
CNLNAGGKRWADRT	0 (no)
LASLDLCVISLMNNHVDRTD	1 (yes)
MNVTCDGRMGIQVDPVRYNR	0 (no)
VFWGDKMSLLDLSVTNIMSI	1 (yes)
VDGRDKSFQSFYCKK	0 (no)
RCNSSSIEWTVCILFDLLFY	0 (no)
GRNWLVGCVAQWHWSSLSWS	0 (no)
KMATRINGWCDGASATTV	0 (no)
YLFGGSWDCGLYISGIPCWS	1 (yes)
QTWLTLDQFVLTFGHKDNLG	1 (yes)
LRTRSLTALFQLCYHTCNVG	1 (yes)
FRYYRF	1 (yes)
LVFPWIISFCQRMWMLYQRY	1 (yes)
RKNTDVTENEYRWAIF	0 (no)
FVCWRYRCFLWELEEDGLVN	1 (yes)
WRICLQCRAYPLRTTGGQRQ	1 (yes)
YVVWDICKRVLLQWRYPPFS	0 (no)
CVVESMSIIMRRCSLS	0 (no)
ICFRSFRHGNYGLMRG	1 (yes)
NFLIDTYCVNSFNVTL	1 (yes)
TMNNFVLKSAFLKSAFTTGV	0 (no)
FLSSCDGGLIGMHGTGFTAQ	1 (yes)
VNKLLS	0 (no)
RPHECRSWAPVRALSGDAHL	1 (yes)
WFAFIWNNRKCNFRKGTRDV	1 (yes)
GEKYNIFNFGFVLCSSLVLF	1 (yes)
MLFRYRSPHTVWLIRLCMKQ	1 (yes)
SFNVNLGSHRDVMIVFSF	1 (yes)
SDKEVVSLQEVHTQSEGSEG	0 (no)
WWGWKIDTNAQILARLCKCL	0 (no)
APSWYRSLMRSSA	0 (no)
WYQLVVVEQGSTLYS	0 (no)
SVMDCSFFVLPLCFGCDQKF	0 (no)
SNRALMADLKERNVINTPIN	0 (no)
AELILFIVLELMKRAFLSS	0 (no)
RVSRFELAIVSVEGSYWVPE	1 (yes)
NDFYVLNASFSSRHSYAIRH	1 (yes)
FHHCFIQTSSDAVSSGLDFE	1 (yes)
NAFNHFYPTQPFLVQDCWRR	1 (yes)
LVVDRGVNGCAFSWDTNDLS	0 (no)
CQSLPKFLHANVKYNSVSGA	0 (no)
LYCWVFSLSSMESNWLGQHT	0 (no)
YTIGTRPTMLRLFGVLRWAG	1 (yes)
MDAFPEFLGVVFHSDDFGVP	0 (no)
YGHLTAGGCWSGQTNNARLG	0 (no)
CNSVDVVLISATACYSWSTL	1 (yes)
VEYVQYFWSSGGVYGSDTGW	0 (no)
EERVFVYRLWYQSLVRHYEL	0 (no)

----------
- measurement protocol: amyloid nucleation score (Sup35N fusion, yeast selection) (log enrichment); library NNK3; higher = more nucleation; inactive = no reads after selection

primary sequence	amyloid nucleation score
VHAMWKSICNTSCML	2.53
NYSSAQEYKVSQERIS	inactive
RCRKHALLFHRCILGYSVLP	inactive
ILFVAGIETFSALSFRWTGV	inactive
TGYAFFHEAS	inactive
MGISLMFESERVSVYEHGNL	inactive
VDSHANHGSNHRWSASDEIS	inactive
RTYYASWENDSMGAVSYCAS	inactive
LIRNEGFCEKS	0.244
YADRRIFSVS	inactive
ANPLAYLQSMSGTSGNT	inactive
NSNIQKHICVQFVKRWLEPC	inactive
